- system.name: HLA-A2 molecule (product of the HLA-A*0201 gene) (Homo sapiens, UniProt P04439, D140Y/D185E/D98H/E176V/E277Q/G131W/G231S/I119V/I121R/I166T/I218V/L300P/L318F/N151K/N90K/P208A/P217A/Q86G/Q94H/R138H/R169H/T345S)
- experiment: Experiment of binding peptide to HLA-A2 molecule (JY cells, flow cytometry)
- condition.set: -log Kd value (Kd in molar concentration), 9 amino acid peptides
pKd: −log10 of the molar value. No end group written: not given here.
parameter: pKd

- SSGCAFLSV [compound 21]: 5.29
- TLPPAWQPF [compound 23]: 5.36

src = patent US9353151B2
